# System: CD-1 mouse liver cytosol, LC/MS substrate depletion half-life
# method.description: NCATS Mouse Liver Cytosol Stability Profiling
# recorded.conditions: at 1 µM; higher = more stable
Each entry below carries its recorded half-life.

# compound, inequality.symbol, half-life (h)
rows = [
    ("CN(C)c1nc2c(c(=O)[nH]1)CCN(Cc1ccc(Cl)cc1)CC2", "=", 1.91),
    ("COc1ccc(CN2C[C@H]3CN(Cc4ccc(Cl)cc4)CCN3C2=O)cc1", "=", 1.37),
    ("CN1c2cc(C(=O)Nc3ccc(Cl)cc3)ccc2C(=O)N2CCCCCC21 (stereo unspecified)", "=", 1.06),
    ("COCC1CN(C(C)=O)CC12CCN(Cc1ccc(Cl)cc1)CC2 (stereo unspecified)", ">", 2),
    ("CN1C(=O)CO[C@H]2CN(Cc3ccc(Cl)cc3)C[C@H]21", "=", 1.94),
    ("O=C(Nc1cccc(-c2nnc3n2CCCC3)c1)c1ccc(Cl)cc1", "=", 0.941),
]

Data credit: PubChem BioAssay AID1508604
